test system: IL-8 expression in human basal-like breast cancer cells (BLBCs); test: ELISA assay assessing IL-8 expression in BLBCs; format: cell-based; settings: Homo sapiens, 24 h, read-out: IC50, inhibition of IL-8 expression
pIC50: −log10 of the molar value.
Measured Property: pIC50

stdin: What measured pIC50 goes with CC1=C(Nc2cc(NS(=O)(=O)c3ccccc3C)ccc2Cl)CCC1=O [Example 05-57] ?
stdout: 6.00 to 7.00

---

Measured Property: melting point

Please review the entries below; each comes with its answer.
| Smiles Notation | melting point |
| --- | --- |
| CC1=C(Nc2ccc3cc(C(=O)O)ccc3c2)CCCC1=O | 259 to 263 °C |
| CC1=C(Nc2cc(NCc3cccc(F)c3C)ccc2Cl)CCCC1=O | 160 to 162 °C |
| CC1=C(Nc2cc(NS(=O)(=O)c3ccccc3F)ccc2Cl)CCC1=O | 215 to 217 °C |
| COC(=O)c1cc(Cl)ccc1NC1=C(C)C(=O)CC1 | 162 to 165 °C |

stdin: What measured melting point goes with `COC(=O)c1ccc(NC2=C(C)C(=O)CC2)c(I)c1` ?
stdout: 178 to 180 °C

---

target: BRD4_2 (Homo sapiens, UniProt O60885); construct: contains two tandem bromodomains (BrD1 and BrD2); assay: Fluorescence anisotropy binding assay (competition with FITC-labeled MS417 probe), BRD4_2; settings: FITC-MS417 probe 80 nM, PBS pH 7.4, 1 hour, 25° C.
Measured Property: IC50

| Compound | Measured Value |
| --- | --- |
| CC1=C(Nc2cccnc2)CCC1=O [Example 01-29] | > 10 µM |
| COc1ccc(NC(=O)c2ccc(NC3=C(C)C(=O)CC3)c(Br)c2)cc1 [Example 05-18] | 1 to 10 µM |

Next item in the queue.
stdin: Form entry - test system: BRD4_2 (Homo sapiens, UniProt O60885); read-out: IC50; compound: COc1ccccc1NC(=O)c1ccc(NC2=C(C)C(=O)CC2)cc1OC [Example 04-69]
stdout: > 10 µM

---

biological target: first bromodomain (BrD1) of human BRD4 (Homo sapiens, UniProt O60885); construct: the first bromodomain (BrD1) of human BRD4; poly-His (cleaved yes); assay: Fluorescence anisotropy binding assay (competition with FITC-labeled MS417 probe); settings: FITC-MS417 probe 80 nM, PBS pH 7.4, 1 hour, 25° C., read-out: BRD4_1 IC50
Measured Property: IC50

| Smiles Notation | Measured Value |
| --- | --- |
| CC1=C(Nc2cc(C(=O)Nc3cccc(C(=O)O)c3C)ccc2Cl)CCCC1=O | > 10 µM |
| CC1=C(Nc2cccnc2)CCC1=O | > 10 µM |
| CC1=C(Nc2ccc(NC(=O)/C=C\C(=O)O)cc2Cl)CCCC1=O | 1 to 10 µM |
| CC1=C(Nc2ccc(C(=O)O)cc2)CCC1=O | 1 to 10 µM |

stdin: Form entry - test system: first bromodomain (BrD1) of human BRD4 (Homo sapiens, UniProt O60885); read-out: IC50; compound: `CC1=C(Nc2cc(NCCc3ccccc3C)ccc2Cl)CCCC1=O`
stdout: 1 to 10 µM

stdin: Can you handle `CC1=C(Nc2ccccc2C(N)=O)CCC1=O` next?
stdout: > 10 µM

stdin: Can you handle `COc1ccc(Cn2cc(-c3cccc(NC4=C(C)C(=O)CC4)c3)nn2)cc1` next?
stdout: < 1 µM

stdin: Can you handle `COc1ccc(NC(=O)c2ccc(NC3=C(C)C(=O)CC3)c(C)c2)cc1` next?
stdout: 1 to 10 µM

stdin: Can you handle `CNC(=O)c1ccc(NC2=C(C)C(=O)CC2)cc1OC` next?
stdout: 1 to 10 µM

stdin: Can you handle `COC(=O)c1ccc(NC2=C(C)C(=O)CC2)c(Cl)c1` next?
stdout: 1 to 10 µM

stdin: Can you handle `COc1ccc(C(=O)Nc2ccc(Cl)c(NC3=C(C)C(=O)CC3)c2)cc1` next?
stdout: < 1 µM

stdin: Can you handle `CC1=C(Nc2cc(NS(=O)(=O)N3CCCCC3)ccc2Cl)CCC1=O` next?
stdout: < 1 µM

stdin: Can you handle `CC1=C(Nc2ccc(NS(=O)(=O)C3CCCCC3)cc2Cl)CCC1=O` next?
stdout: < 1 µM

stdin: Can you handle `CC1=C(Nc2cc(C(=O)O)c3ccccc3c2)CCCC1=O` next?
stdout: 1 to 10 µM

stdin: Can you handle `CC1=C(Nc2ccc3ncccc3c2)CCCC1=O` next?
stdout: 1 to 10 µM

stdin: Can you handle `CC1=C(Nc2ccc(C(=O)Nc3ccc(C)cc3)cc2Cl)CCC1=O` next?
stdout: 1 to 10 µM

stdin: Can you handle `CC1=C(Nc2cccc(C(=O)Nc3ccccc3C)c2)CCC1=O` next?
stdout: 1 to 10 µM

stdin: Can you handle `COc1cc(NC2=C(C)C(=O)CC2)ccc1C(=O)Nc1ccccc1` next?
stdout: 1 to 10 µM

stdin: Can you handle `COc1cc(C(=O)Nc2cccc(C)c2)ccc1NC1=C(C)C(=O)CC1` next?
stdout: 1 to 10 µM

stdin: Can you handle `CC1=C(Nc2ccc(C(=O)Nc3cccc(C)c3)cc2Cl)CCC1=O` next?
stdout: < 1 µM

stdin: Can you handle `CC1=C(Nc2ccccc2C(=O)O)CCC1=O` next?
stdout: > 10 µM

stdin: Can you handle `CC1=C(Nc2cc(NS(=O)(=O)c3ccccc3Cl)ccc2Cl)CCC1=O` next?
stdout: < 1 µM

stdin: Can you handle `CC1=C(Nc2ccc(C(=O)O)cc2I)CCC1=O` next?
stdout: 1 to 10 µM

stdin: Can you handle `COC(=O)c1ccc(Cl)cc1NC1=C(C)C(=O)CC1` next?
stdout: 1 to 10 µM

stdin: Can you handle `CC1=C(Nc2ccc3[nH]c(C(=O)O)cc3c2)CCCC1=O` next?
stdout: < 1 µM

---

biological target: first bromodomain (BrD1) of human BRD4 (Homo sapiens); construct: the first bromodomain (BrD1) of human BRD4; poly-His (cleaved yes); assay: Fluorescence anisotropy binding assay (competition with FITC-labeled MS417 probe); conditions: FITC-MS417 probe 80 nM, PBS pH 7.4, 1 hour, 25° C., read-out: BRD4_1 IC50
Consider the following compounds and their measured IC50 readings.

Please review the entries below; each comes with its answer.
| Compound | IC50 |
| --- | --- |
| COc1ccccc1S(=O)(=O)Nc1ccc(Cl)c(NC2=C(C)C(=O)CC2)c1 [Example 05-60] | < 1 µM |
| CC1=C(Nc2cc(C(=O)O)ccc2Cl)CCCC1=O [Example 01-36] | > 10 µM |
| NC(=O)c1ccc(NC2=CC(=O)CC2)cc1 [Example 01-2] | 1 to 10 µM |
| COC(=O)c1cccc(NC(=O)c2ccc(Cl)c(NC3=C(C)C(=O)CCC3)c2)c1C [Example 04-92] | 1 to 10 µM |
| CC1=C(Nc2cccc(C(=O)Nc3cccc4ccccc34)c2)CCC1=O [Example 04-2] | 1 to 10 µM |

stdin: Form entry - test system: first bromodomain (BrD1) of human BRD4 (Homo sapiens); read-out: IC50; compound: CC1=C(Nc2ccc(C(=O)Nc3ccccc3C)cc2C)CCC1=O [Example 04-84]
stdout: 1 to 10 µM

stdin: Can you handle COc1cccc(NC(=O)c2ccc(NC3=C(C)C(=O)CC3)cc2Cl)c1 [Example 04-47] next?
stdout: > 10 µM

stdin: Can you handle CC1=C(Nc2ccc3ccccc3c2)CCC1=O [Example 01-27] next?
stdout: 1 to 10 µM

stdin: Can you handle CC1=C(Nc2ccncc2)CCC1=O [Example 01-30] next?
stdout: 1 to 10 µM

---

target: BRD4_2 (Homo sapiens, UniProt O60885); construct: contains two tandem bromodomains (BrD1 and BrD2); assay: Fluorescence anisotropy binding assay (competition with FITC-labeled MS417 probe), BRD4_2; conditions: FITC-MS417 probe 80 nM, PBS pH 7.4, 1 hour, 25° C.
Measured Property: IC50

Please review the entries below; each comes with its answer.
| Compound | IC50 |
| --- | --- |
| CC1=C(Nc2ccc(C(=O)Nc3cccc(C)c3)cc2)CCC1=O [Example 03-9] | 1 to 10 µM |
| COc1ccc(NC(=O)c2cc(NC3=C(C)C(=O)CCC3)cc3ccccc23)cc1 [Example 04-105] | 1 to 10 µM |
| CNC(=O)c1ccc(NC2=C(C)C(=O)CC2)c(C)c1 [Example 04-77] | > 10 µM |
| CC1=C(Nc2ccc3[nH]c(=O)[nH]c3c2)CCCC1=O [Example 01-63] | 1 to 10 µM |
| COc1cccc(NC(=O)c2ccc(NC3=C(C)C(=O)CC3)cc2)c1 [Example 03-11] | > 10 µM |
| CC1=C(Nc2cc(N)ccc2Cl)CCC1=O [Example 02-15] | 1 to 10 µM |
| CC1=C(Nc2cccc(Nc3ccccc3C)c2Cl)CCCC1=O [Example 05-80] | 1 to 10 µM |
| CC1=C(Nc2ccc(C(=O)NCc3ccccc3)cc2)CCC1=O [Example 03-18] | 1 to 10 µM |

Next item in the queue.
stdin: What measured IC50 goes with CC1=C(Nc2ccc(C(=O)Nc3ccccc3)cc2)CCC1=O [Example 03-1] ?
stdout: 1 to 10 µM
